meta.source: PubChem BioAssay

Overview of reported composite z-score across a group of molecules:
# Test system: Inhibin beta A chain (activin A)
# Procedure Details: INHBA (activin A) binders on microarrays, primary screen, biochemical, small-molecule microarray, 635 nm fluorescence scan (AID 1107);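 further: mouse activin A protein probed at 4.33 µg/mL on printed slides; score merges bound-protein fluorescence near 667 nm with spot signal-to-noise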
# Applied Conditions: small-molecule microarray binding, higher = more signal
Reply with just the number.

Molecule: COC(=O)CC=C[C@@H](C)[C@@H](C=NO[C@@H](C)c1cc(-c2c(C)cc(C)cc2C)no1)NS(=O)(=O)c1ccc(C)cc1
Numeric Readout: 0.178
//
Molecule: CCOC(=O)[C@H](Cc1ccccc1)NC(=O)OC1CC(CCC2CC(CC)=NO2)OC2(CCCC(COC(=O)NCCC(C)C)O2)C1 (some centres undefined)
Numeric Readout: -0.415
//
Molecule: C[C@@H](c1ccccc1)N1C(=O)[C@H]2[C@H]3[C@H](O)[C@H](O)CC(=NOCc4ccccc4)[C@H]3CC[C@H]2C1=O
Numeric Readout: -0.27
//
Molecule: COC(=O)CC=C[C@@H](C)[C@@H](C=NOCC[C@@H]1C=C[C@H](OC(C)=O)[C@@H](COC(C)=O)O1)OC
Numeric Readout: -0.3
//
Molecule: COc1cccc([C@H]2Oc3ccc(OC)cc3C(=NOC[C@@H](C)[C@H](OCc3ccccc3)C(C)C)[C@@H]2O)c1
Numeric Readout: 0.0185
//
Molecule: CCOC(=O)[C@H](CC(C)C)NC(=O)CCC1CC(OC(=O)NCCc2ccc(F)cc2)CC2(CCCC(COC(=O)NCC(c3ccccc3)c3ccccc3)O2)O1 (some centres undefined)
Numeric Readout: -0.0427
//
Molecule: O=C1C[C@@H](O)[C@@H](O)[C@@H]2[C@@H]3C(=O)N(C[C@@H]4CCCO4)C(=O)[C@@H]3CC[C@H]12
Numeric Readout: -0.161
//
Molecule: O=C1CCCC=C1C(O)CCCCBr (centres undefined)
Numeric Readout: 1.26
//
Molecule: CCOC(=O)[C@H](Cc1ccccc1)NC(=O)CCC1CC(OC(=O)NCc2cccc3ccccc23)CC2(CCCC(COC(=O)NCC(c3ccccc3)c3ccccc3)O2)O1 (some centres undefined)
Numeric Readout: 0.0413
//
Molecule: CCOC(=O)[C@H](CC(C)C)NC(=O)CCC1CC(OC(=O)NCc2cccc3ccccc23)CC2(CCCC(COC(=O)NCCOC)O2)O1 (some centres undefined)
Numeric Readout: -0.0748

Prompt: Please give measured composite z-score of the following entry: "CON=Cc1ccc(C(=O)N2[C@H](c3ccc(C)cc3)[C@@H](C)CC[C@H]2C(=O)OC)cc1"
Response: 0.339

Prompt: Provide measured composite z-score value, entry: "CO[C@H]1COC(=O)[C@@H]2CCCN2C(=O)CC=C[C@@H](C)[C@H](OC)COC(=O)[C@@H](OCc2ccccc2)C=C[C@@H]1C"
Response: 1.58

Prompt: Tell me measured composite z-score for CCOC(=O)[C@H](Cc1ccccc1)NC(=O)CCC1CC(OC(=O)NCCc2ccc(F)cc2)CC2(CCCC(COC(=O)NCCc3ccccc3OC)O2)O1 (some centres undefined) please.
Response: -0.314

====

In this section, each of the compounds is paired with its reported composite z-score.
# Target: Fibroblast growth factor 10 (Homo sapiens) (UniProt O15520)
# Sequence (O15520 whole entry, looked up): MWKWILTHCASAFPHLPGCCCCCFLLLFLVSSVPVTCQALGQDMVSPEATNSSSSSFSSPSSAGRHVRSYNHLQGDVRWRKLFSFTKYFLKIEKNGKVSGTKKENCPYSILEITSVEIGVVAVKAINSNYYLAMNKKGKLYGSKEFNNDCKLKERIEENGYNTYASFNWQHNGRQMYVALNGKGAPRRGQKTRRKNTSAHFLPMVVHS
# Procedure Details: FGF10 binders on small-molecule microarrays, primary screen, biochemical, small-molecule microarray, 635 nm fluorescence (AID 1102)
# Applied Conditions: FGF10 binding, fluorescence 635 nm, higher = more signal
Please give only the number in your answer, with no unit.

# count of solved cases: 4
Compound: O=C1C[C@@H](O)[C@@H](O)[C@@H]2[C@@H]3C(=O)N(Cc4ccccc4)C(=O)[C@@H]3CC[C@@H]12
composite z-score: 0.807
//
Compound: CCOC(=O)CCN1C(=O)[C@H]2[C@H]3[C@H](O)[C@H](O)CC(=NNC(=O)OCc4ccccc4)[C@@H]3CC[C@H]2C1=O
composite z-score: 0.709
//
Compound: CC(C)=CCCC(C)=CCON=C1C[C@@H](O)[C@@H](O)[C@@H]2[C@@H]3C(=O)N(Cc4ccccc4)C(=O)[C@@H]3CC[C@H]12
composite z-score: 0.932
//
Compound: CCOC(=O)NN=C1C[C@@H](O)[C@@H](O)[C@@H]2[C@@H]3C(=O)N(c4cccc(Oc5ccccc5)c4)C(=O)[C@@H]3CC[C@H]12
composite z-score: 0.518

Kindly review the next compound as well.
Prompt: Quote composite z-score reported for CCOC(=O)[C@H](CC(C)C)NC(=O)CCC1CC(OC(=O)NCc2ccc3c(c2)OCO3)CC2(CCCC(COC(=O)NCc3cccc(C(F)(F)F)c3)O2)O1 (stereo not given in full) please.
Response: 0.418

====

# Procedure Details: binders of probe aHhip on microarray, primary screen, stem cell growth factor project, biochemical, small-molecule microarray, fluorescence 635/667 (AID 1087);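 further: score merges spot fluorescence at 667nm with spot signal to noise ratio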
# Applied Conditions: higher = more signal
Readout: composite z-score
Number only, no unit.

Compound: CC(C)(C)N1C(=O)[C@H]2[C@H]3[C@H](O)[C@H](O)CC(=O)[C@H]3CC[C@H]2C1=O
Numeric Readout: -0.134
--
Compound: COC(=O)[C@H](C)NC(=O)CCC1CC(OC(=O)NCc2ccc3c(c2)OCO3)CC2(CCCC(COC(=O)NCc3cccc(C(F)(F)F)c3)O2)O1 (stereo partly drawn)
Numeric Readout: 1.19
--
Compound: CC(C)CON=C1C[C@@H](O)[C@@H](O)[C@@H]2[C@@H]3C(=O)N(C4CCCCC4)C(=O)[C@@H]3CC[C@@H]12
Numeric Readout: -0.0994
--
Compound: CO[C@H]1COC(=O)CC=C[C@H](C)[C@@H](OC)COC(=O)[C@@H](C)NC(=O)CC=C[C@@H]1C
Numeric Readout: -0.196
--
Compound: CO[C@@H]1COC(=O)[C@@H](C)NC(=O)CC=C[C@@H](C)[C@H](NS(=O)(=O)c2ccc(C)cc2)COC(=O)[C@H](C)NC(=O)CC=C[C@H]1C
Numeric Readout: 0.168
--
Compound: O=C(NN=C1C[C@@H](O)[C@@H](O)[C@@H]2[C@@H]3C(=O)N(C4CCCCC4)C(=O)[C@@H]3CC[C@@H]12)OCc1ccccc1
Numeric Readout: -0.16
--
Compound: COc1ccc(O[C@H]2C=C[C@@H](c3ccccc3)O[C@@H]2CON=C(C)C)cc1
Numeric Readout: 0.107

Please look at the following compound next.
Prompt: Determine from records and report composite z-score for "COc1ccc(O[C@@H]2[C@H](O)CO[C@H]2C=Cc2ccccc2)cc1"
Response: -0.0994

====

# Target: Left-right determination factor 2 (Homo sapiens)
# Procedure Details: LEFTY2 binders on small-molecule microarrays, primary screen, biochemical, small-molecule microarray, 635 nm fluorescence scan (AID 1110)
# Applied Conditions: LEFTY2 binding, higher = more signal
Examples of molecules with documented composite z-score follow.
# respond with the number and nothing more

Molecule: O=C1[C@H]2[C@H]3[C@H](O)[C@H](O)CC(=NOCc4ccccc4)[C@@H]3CC[C@H]2C(=O)N1Cc1ccc2c(c1)OCO2
composite z-score: 0.517
--
Molecule: CCOC(=O)[C@H](Cc1ccccc1)NC(=O)CCC1CC(OC(=O)NCCc2ccc(F)cc2)CC2(CCCC(COC(=O)NCCCN3CCCC3=O)O2)O1 (some centres undefined)
composite z-score: 0.612
--
Molecule: CO[C@H]1COC(=O)CC=C[C@H](C)[C@@H](OC)COC(=O)[C@H](C)COC(=O)CC=C[C@@H]1C
composite z-score: 1.33

Next, consider the following molecule.
Prompt: Supply composite z-score value. Item: "CCOC(=O)NN=C1C[C@@H](O)[C@@H](O)[C@@H]2[C@@H]3C(=O)N(c4ccc(F)cc4F)C(=O)[C@@H]3CC[C@@H]12"
Response: 0.292

====

# Procedure Details: anti-His antibody binders, primary screen, artefact control for SMM control protein annotation, biochemical, small-molecule microarray, 635 nm fluorescence (AID 1128);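 further: score merges feature fluorescence with signal-to-noise for each printed compound spot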
# Applied Conditions: anti-His Alexa647 antibody binding, higher = more signal
Readout: composite z-score
Respond numerically, and do not add a unit to the figure.

Compound: C#CCCCON=C1C[C@@H](O)[C@@H](O)[C@@H]2[C@@H]3C(=O)N(c4ccc(F)cc4F)C(=O)[C@@H]3CC[C@@H]12
composite z-score: -0.0071
--
Compound: CCOC(=O)[C@H](CC(C)C)NC(=O)CCC1CC(OC(=O)NCc2cccc3ccccc23)CC2(CCCC(COC(=O)NCCCN3CCCC3=O)O2)O1 (stereo partly drawn)
composite z-score: 0.551
--
Compound: CCOC(=O)NN=C1C[C@@H](O)[C@@H](O)[C@@H]2[C@@H]3C(=O)N(C(C)(C)C)C(=O)[C@@H]3CC[C@H]12
composite z-score: 0.322
--
Compound: CCCCC#C[C@@H]1C=C[C@H](Oc2cc(OC)c(OC)c(OC)c2)[C@@H](COC(=O)OCC)O1
composite z-score: 0.054
--
Compound: CC(C)(C)N1C(=O)[C@H]2[C@H]3[C@H](O)[C@H](O)CC(=O)[C@H]3CC[C@H]2C1=O
composite z-score: 0.875

Prompt: Look up and report measured composite z-score for this entry: "CC(C)=CCCC(C)=CCON=C1C[C@@H](O)[C@@H](O)[C@@H]2[C@@H]3C(=O)N(C(C)(C)C)C(=O)[C@@H]3CC[C@H]12"
Response: -0.119

Prompt: Please give the documented composite z-score of "CO[C@@H]1COC(=O)[C@H](CCSC)NC(=O)CC=C[C@@H](C)COC(=O)[C@H](C)NC(=O)CC=C[C@H]1C"
Response: -0.229

Prompt: Quick one: give measured composite z-score for "COC(=O)C=CCCc1coc(C=CCNC(=O)OC)n1"
Response: 0.803

Prompt: Answer with the recorded composite z-score of "CSCC[C@@H]1NC(=O)CC=C[C@@H](C)COC(=O)[C@@H](C)COC1=O" only.
Response: -0.888

Prompt: Entry "C=Cc1ccc([C@H]2N[C@H](C(=O)O)CC[C@@H]2C)cc1" needs its composite z-score filled in; supply it.
Response: 0.126
